# assay method text: Cytotoxicity against mouse RAW264.7 cells assessed as cell survival at 100 uM
# Assay type: cell-based
# condition notes: read-out: Activity
Entries whose viability at 100 µM is below 80% take MET; entries at or above 80% take NOT MET.

### Prompt Please check: viability at 100 µM for CNC(=N)NCCC[C@H](N)C(=O)O [TILARGININE ACETATE] , strictly under 80% or not?
### Response NOT MET

### Prompt Below 80% on viability at 100 µM? Entry C=C[C@]1(C)C=C2[C@H](OC(C)=O)[C@@H](O)[C@H]3C(C)(C)CCC[C@]3(C)[C@H]2CC1
### Response MET

### Prompt Is viability at 100 µM of C=C[C@]1(C)C=C2C[C@@H](O)[C@H]3C(C)(C)[C@H](O)C[C@H](O)[C@]3(C)[C@H]2CC1 strictly below 80%?
### Response NOT MET

### Prompt Confirm or reject: viability at 100 µM of C=C[C@@]1(C)C=C2CC[C@@H]3C(C)(C)C[C@@H](O)C[C@@]3(C)[C@@H]2CC1 lies strictly below 80%
### Response MET

### Prompt Is viability at 100 µM of C=C[C@]1(C)C=C2[C@@H](O)C[C@H]3C(C)(C)CCC[C@]3(C)[C@@]2(O)CC1 strictly below 80%?
### Response MET

### Prompt Check if viability at 100 µM falls below 80% for C=C[C@]1(C)C=C2[C@H](OC(C)=O)C[C@H]3C(C)(C)CCC[C@]3(C)[C@@]2(O)CC1 .
### Response MET

### Prompt Say whether its viability at 100 µM is strictly beneath 80%. Entry: C=C[C@]1(C)C=C2C[C@@H](OC(C)=O)[C@H]3C(C)(C)CCC[C@]3(C)[C@@]2(O)CC1
### Response MET
